Target: T1, Fusion protein of extracellular domain of human TIGIT and His-tag (human TIGIT ECD-his) (human)
T1 chain: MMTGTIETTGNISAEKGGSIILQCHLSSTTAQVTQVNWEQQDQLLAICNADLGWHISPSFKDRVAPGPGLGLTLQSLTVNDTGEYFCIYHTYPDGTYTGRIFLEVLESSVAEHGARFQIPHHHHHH
Experiment: BIAcore
Everything with koff lower than 0.0004 s⁻¹ is n; everything else, including exactly 0.0004 s⁻¹, is y.

binder | label value
TIGIT-070-H1L2 (antibody, V domains shown, Humanized anti-TIGIT antibody) VH: EVQLVQSGAEVKKPGASVKVSCKASGYTFTNYYMHWVRQAPGQRLEWMGRIDPDSGGSKYNEKFKSRVTITVDKSASTAYMELSSLRSEDTAVYYCAREGHYGFYSDYWGQGTTVTVSS VL: DIQMTQSPSSLSASVGDRVTITCRVSENIYSYLAWYQQKPGKSPKLLVYNAKTLAEGVPSRFSGSGSGTDFTLTISSLQPEDFATYYCQHHYGNPLTFGPGTKVDIK | n
TIGIT-006-H4L2 (antibody, V domains shown, Humanized anti-TIGIT antibody) VH: EVQLQESGPGLVKPSETLSLTCAVSGYSMTSDYWNWIRQPPGKKLEWMGYISYSGRTYYNPSLKSRITISRDTSKNQFSLKLSSVTAADTAVYYCARGDYSNYGGAMYDWGQGTTVTVSS VL: DIVMTQTPLSLSVTPGQPASISCRASQGVSTTIAWYQQKPGQSPKLLIYSASYRYTGVPDRFSGSGSGTDFTLKISRVEAEDVGVYYCQQYYSSPFTFGGGTKVEIK | n
TIGIT-002-H2L3 (antibody, V domains shown, Humanized anti-TIGIT antibody) VH: EVQLQESGPGLVKPSETLSLTCAVSGYSITSDSWNWIRQPPGKKLEWIGYISYSGNTYYNPSLKSRVTISRDTSKNQFSLKLSSVTAADTAVYYCARLDFSNYGGAVDYWGQGTTVTVSS VL: DIVMTQSPDSLAVSLGERATINCKASQNVRTAVAWYQQKPGQSPKLMIYSASYRYTGVPDRFSGSGSGTDFTLTISSLQAEDVAVYYCQQYYTTPWTFGGGTKVEIK | y
TIGIT-070-H3L2 (antibody, V domains shown, Humanized anti-TIGIT antibody) VH: EVQLVQSGAEVKKPGASVKVSCKASGYTFTNYYMHWVRQAPGQGLEWMGRIDPDSGGSKYNEKFKSRVTITVDKLSSTAYMELSSLRSEDTAVYYCAREGHYGFYSDYWGQGTTVTVSS VL: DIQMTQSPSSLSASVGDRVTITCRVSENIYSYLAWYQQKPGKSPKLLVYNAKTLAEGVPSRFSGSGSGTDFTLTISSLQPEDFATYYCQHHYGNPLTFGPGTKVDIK | n
TIGIT-002-H4L3 (antibody, V domains shown, Humanized anti-TIGIT antibody) VH: EVQLQESGPGLVKPSETLSLTCAVSGYSITSDSWNWIRQPPGKKLEYIGYISYSGNTYYNPSLKSRVTISRDTSKNQFSLKLSSVTAADTAVYYCARLDFSNYGGAVDYWGQGTTVTVSS VL: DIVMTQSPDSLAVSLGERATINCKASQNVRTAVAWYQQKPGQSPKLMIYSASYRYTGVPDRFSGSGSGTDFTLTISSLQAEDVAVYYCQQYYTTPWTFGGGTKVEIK | n
TIGIT-006-H3L2 (antibody, V domains shown, Humanized anti-TIGIT antibody) VH: EVQLQESGPGLVKPSETLSLTCAVSGYSMTSDYWNWIRQPPGKKLEWIGYISYSGRTYYNPSLKSRVTISRDTSKNQFSLKLSSVTAADTAVYYCARGDYSNYGGAMYDWGQGTTVTVSS VL: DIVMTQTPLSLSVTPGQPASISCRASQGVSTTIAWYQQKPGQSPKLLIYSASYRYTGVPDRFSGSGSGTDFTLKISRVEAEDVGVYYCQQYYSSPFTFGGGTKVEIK | n
TIGIT-006-H2L1 (antibody, V domains shown, Humanized anti-TIGIT antibody) VH: EVQLQESGPGLVKPSETLSLTCAVSGYSMTSDYWNWIRQPPGKGLEWIGYISYSGRTYYNPSLKSRVTISRDTSKNQFSLKLSSVTAADTAVYYCARGDYSNYGGAMYDWGQGTTVTVSS VL: DIVMTQTPLSLSVTPGQPASISCRASQGVSTTIAWYLQKPGQSPQLLIYSASYRYTGVPDRFSGSGSGTDFTLKISRVEAEDVGVYYCQQYYSSPFTFGGGTKVEIK | n
TIGIT-002-H1L3 (antibody, V domains shown, Humanized anti-TIGIT antibody) VH: EVQLQESGPGLVKPSETLSLTCAVSGYSITSDSWNWIRQPPGKGLEWIGYISYSGNTYYNPSLKSRVTISRDTSKNQFSLKLSSVTAADTAVYYCARLDFSNYGGAVDYWGQGTTVTVSS VL: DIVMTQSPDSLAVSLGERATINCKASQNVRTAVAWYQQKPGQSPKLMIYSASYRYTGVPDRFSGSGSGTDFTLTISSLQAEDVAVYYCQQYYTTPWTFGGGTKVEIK | y
TIGIT-006-H1L2 (antibody, V domains shown, Humanized anti-TIGIT antibody) VH: EVQLQESGPGLVKPSETLSLTCAVSGYSITSDYWNWIRQPPGKGLEWIGYISYSGRTYYNPSLKSRVTISRDTSKNQFSLKLSSVTAADTAVYYCARGDYSNYGGAMYDWGQGTTVTVSS VL: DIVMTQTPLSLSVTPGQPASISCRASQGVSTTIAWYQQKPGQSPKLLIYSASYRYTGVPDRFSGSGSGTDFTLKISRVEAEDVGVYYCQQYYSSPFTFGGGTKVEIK | y
TIGIT-005-H2L1a (antibody, V domains shown, Humanized anti-TIGIT antibody with NG-site mutation in VL) VH: EVQLVQSGAEVKKPGASVKVSCKASGYAFTNYLIEWVRQAPGQRLEWMGVINPGSGGTNYKEKFKGRVTITADKSSSTAYMELSSLRSEDTAVYYCARGEYFFFDYWGQGTTVTVSS VL: DIVMTQSPDSLAVSLGERATINCKASQHVSQGVAWYQHKPGQSPKLLIYSASYRYTGVPDRFSGSGSGTDFTLTISSLQAEDVAVYYCQQHYNTPHTFGGGTKVEIK | y

Origin of measurements: patent US20240343803A1
